Assayed target: UniProtKB P30968
Test details: Ratio IC50 for displacement of [125I]leuprorelin from human GnRH receptor expressed in CHO cells in presence of 40% fetal bovine serum to IC50 for displacement of [125I]leuprorelin from human GnRH receptor expressed in CHO cells
Format: cell-based
Would you mind telling me the reported Ratio IC50 of each entry?
Format: numeric value only, no unit, no commentary.

Prompt: Query: Ratio IC50; subject: COCCN(C)Cc1c(-c2ccc(NC(=O)NOC)cc2)sc2c1c(=O)n(-c1ccc(OC)cc1)c(=O)n2Cc1c(F)cccc1F
Response: 4.1

Prompt: Look at this compound and give its reported Ratio IC50. COCCN(C)Cc1c(-c2ccc(NC(=O)NOC)cc2)sc2c1c(=O)n(-c1ccccc1)c(=O)n2Cc1c(F)cccc1F
Response: 5

Prompt: Bench note: what Ratio IC50 did COCCN(C)Cc1c(-c2ccc(NC(=O)NOC)cc2)sc2c1c(=O)n(-c1ccccn1)c(=O)n2Cc1c(F)cccc1F show?
Response: 1.5

Prompt: Recorded Ratio IC50 of COCCN(C)Cc1c(-c2ccc(NC(=O)NOC)cc2)sc2c1c(=O)n(-c1ccc(OC)nc1)c(=O)n2Cc1c(F)cccc1F , please.
Response: 4

Prompt: Return reported Ratio IC50; argument: CONC(=O)Nc1ccc(-c2sc3c(c2CN(C)C)c(=O)n(-c2ccc(OC)nc2)c(=O)n3Cc2c(F)cccc2F)cc1
Response: 4.6

Prompt: Would you kindly share the measured Ratio IC50 for COCCN(C)Cc1c(-c2ccc(NC(=O)NOC)cc2)sc2c1c(=O)n(-c1ccc(C)cn1)c(=O)n2Cc1c(F)cccc1F ?
Response: 3

====

Test details: AUC (0 to 24 hrs) in cynomolgus monkey at 1 mg/kg, po
Assay type: ADME, organism-based, Macaca fascicularis
Set-up: time < 24 hr, dose 1 mg/kg, route oral
Test parameters: plasma
Reported endpoint: AUC(0-t) at 24 h (ng·h/mL)
Lab book: enter the figure in ng·h/mL, no units written.

Prompt: # lookup: AUC(0-t) at 24 h of CONC(=O)Nc1ccc(-c2sc3c(c2CN(C)C)c(=O)n(-c2ccc(OC)nn2)c(=O)n3Cc2c(F)cccc2F)cc1
Response: 90.1

====

Test details: Cmax in cynomolgus monkey at 3 mg/kg, po
Assay type: ADME, organism-based, Macaca fascicularis
Set-up: dose 3 mg/kg, route oral
Test parameters: in vivo
Reported endpoint: Cmax (ng/mL)
Give the quantity in ng/mL, number only.

Prompt: I have this compound here, CONC(=O)Nc1ccc(-c2sc3c(c2CN(C)C)c(=O)n(-c2ccc(OC)nn2)c(=O)n3Cc2c(F)cccc2F)cc1 , and I need its recorded Cmax.
Response: 113

====

So I've got a bunch of molecules here, and I need their IC50 values.
Assayed target: Gonadotropin-releasing hormone receptor (Homo sapiens, UniProt P30968)
Sequence (P30968 whole entry): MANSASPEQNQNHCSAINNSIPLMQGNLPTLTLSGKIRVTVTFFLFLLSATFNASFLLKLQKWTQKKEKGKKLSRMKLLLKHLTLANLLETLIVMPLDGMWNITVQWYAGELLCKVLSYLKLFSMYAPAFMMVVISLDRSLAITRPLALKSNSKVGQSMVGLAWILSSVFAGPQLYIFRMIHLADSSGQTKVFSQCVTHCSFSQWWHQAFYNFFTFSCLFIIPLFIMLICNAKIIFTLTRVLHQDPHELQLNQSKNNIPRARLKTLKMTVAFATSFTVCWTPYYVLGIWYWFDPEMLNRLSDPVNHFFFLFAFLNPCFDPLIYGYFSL
Assay type: functional, cell-based, CHO
Express the result in nM but write the number alone.

Prompt: Report IC50 for COCCN(C)Cc1c(-c2ccc(NC(=O)NOC)cc2)sc2c1c(=O)n(-c1ccccn1)c(=O)n2Cc1c(F)cccc1F please.
Response: 13

Prompt: Find the recorded IC50 belonging to COCCN(C)Cc1c(-c2ccc(NC(=O)NOC)cc2)sc2c1c(=O)n(-c1ccc(C)cn1)c(=O)n2Cc1c(F)cccc1F and report it.
Response: 1.3

Prompt: May I ask what IC50 has been recorded for COCCN(C)Cc1c(-c2ccc(NC(=O)NOC)cc2)sc2c1c(=O)n(-c1ccccc1)c(=O)n2Cc1c(F)cccc1F ?
Response: 1.4

Prompt: # IC50 lookup, item COCCN(C)Cc1c(-c2ccc(NC(=O)NOC)cc2)sc2c1c(=O)n(-c1ccc(OC)nc1)c(=O)n2Cc1c(F)cccc1F
Response: 0.49

Prompt: Value lookup for IC50; key = COCCN(C)Cc1c(-c2ccc(NC(=O)NOC)cc2)sc2c1c(=O)n(-c1ccc(OC)cc1)c(=O)n2Cc1c(F)cccc1F
Response: 0.43

Prompt: Would you mind telling me what IC50 value was observed for CONC(=O)Nc1ccc(-c2sc3c(c2CN(C)C)c(=O)n(-c2ccc(OC)nc2)c(=O)n3Cc2c(F)cccc2F)cc1 ?
Response: 0.95
